target: Cbl-b (Homo sapiens, UniProt Q13191); construct: Cbl-b-HiBit KI Jurkat Cells were purchased from Promega; host or cells: Cbl-b-HiBiT knock-in Jurkat cells; experiment: Cbl-b Degradation Method B (Nano-Glo HiBiT lytic detection); assay type: cell-based; conditions: Cbl-b-HiBit KI Jurkat Cells, incubated at least 6-24 hours; half maximal degradation; read-out: Cbl-b Degredation Method B IC50
Sequence (Q13191 whole entry): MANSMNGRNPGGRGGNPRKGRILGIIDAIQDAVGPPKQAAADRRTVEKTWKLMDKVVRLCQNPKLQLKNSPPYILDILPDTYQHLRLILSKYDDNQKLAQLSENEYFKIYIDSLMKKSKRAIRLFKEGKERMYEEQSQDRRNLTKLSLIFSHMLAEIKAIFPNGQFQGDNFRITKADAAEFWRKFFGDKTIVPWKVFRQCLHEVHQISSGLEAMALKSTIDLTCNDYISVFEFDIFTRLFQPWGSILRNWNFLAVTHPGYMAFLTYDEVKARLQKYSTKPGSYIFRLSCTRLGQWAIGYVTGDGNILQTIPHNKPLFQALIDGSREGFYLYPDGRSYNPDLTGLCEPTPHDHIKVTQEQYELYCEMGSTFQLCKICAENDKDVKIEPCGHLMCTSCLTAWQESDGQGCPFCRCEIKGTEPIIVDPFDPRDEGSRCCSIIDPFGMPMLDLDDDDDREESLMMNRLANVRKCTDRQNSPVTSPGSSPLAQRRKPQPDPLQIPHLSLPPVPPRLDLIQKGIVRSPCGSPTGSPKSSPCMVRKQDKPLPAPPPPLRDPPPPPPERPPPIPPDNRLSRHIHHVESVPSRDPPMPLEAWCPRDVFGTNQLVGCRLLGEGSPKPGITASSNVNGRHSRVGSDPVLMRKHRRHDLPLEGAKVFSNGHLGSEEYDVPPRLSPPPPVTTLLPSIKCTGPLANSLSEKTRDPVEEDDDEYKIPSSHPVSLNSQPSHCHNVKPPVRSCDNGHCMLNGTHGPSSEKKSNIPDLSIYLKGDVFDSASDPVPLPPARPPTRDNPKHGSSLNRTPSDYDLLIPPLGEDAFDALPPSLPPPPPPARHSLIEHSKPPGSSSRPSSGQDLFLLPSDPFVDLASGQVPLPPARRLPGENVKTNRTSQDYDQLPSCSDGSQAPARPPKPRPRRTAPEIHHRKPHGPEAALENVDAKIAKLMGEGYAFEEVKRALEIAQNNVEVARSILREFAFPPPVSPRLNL
Quantity Measured: DC50

* C[C@@H]1c2nc(N3CCC(O[C@H]4CC[C@H](CN5CCN(Cc6cc7c(c(C(F)(F)F)c6)CN(c6cccc(C8(Cc9nncn9C)CC(C#N)C8)c6)C7=O)C(C)(C)C5)CC4)CC3)ccc2C(=O)N1C1CCC(=O)NC1=O (single isomer, unassigned) [Example 306] | < 5 nM
* Cn1cnnc1CC1(c2cccc(N3Cc4c(cc(CN5CCC(CC6CCN(c7ccc8c(c7)C(=O)N(C7CCC(=O)NC7=O)C8=O)CC6)CC5)cc4C(F)(F)F)C3=O)c2)COC1 (stereo not drawn) [Example 78] | > 500 nM
* Cn1cnnc1C[C@]1(c2cccc(N3Cc4c(cc(CN5CCN(C[C@H]6CC[C@H](OC7CCN(c8cccc9c8n(C)c(=O)n9C8CCC(=O)NC8=O)CC7)CC6)CC5(C)C)cc4C(F)(F)F)C3=O)c2)C[C@H](C#N)C1 (stereo partly drawn) [Example 274] | < 5 nM
* Cn1cnnc1C[C@]1(c2cccc(N3Cc4c(cc(CN5CCN(C[C@H]6CC[C@H](OC7CCN(c8ccc9c(c8)n(C)c(=O)n9C8CCC(=O)NC8=O)CC7)CC6)CC5)cc4C(F)(F)F)C3=O)c2)C[C@H](C#N)C1 (stereo partly drawn) [Example 215] | < 5 nM
* Cn1cnnc1CC1(c2cccc(N3Cc4c(cc(CN5CCN(C6CCC7(CC6)CCN(c6ccc8c(c6)C(=O)N(C6CCC(=O)NC6=O)C8=O)CC7)CC5)cc4C(F)(F)F)C3=O)c2)COC1 (stereo not drawn) [Example 105] | > 500 nM
* Cn1cnnc1CC1(c2cccc(N3Cc4c(cc(N5CC6(CC(CCOc7ccc8c(c7)C(=O)N(C7CCC(=O)NC7=O)C8=O)C6)C5)cc4C(F)(F)F)C3=O)c2)COC1 (stereo not drawn) [Example 20] | > 500 nM
* CC1c2nc(N3CCC(O[C@H]4CC[C@H](CN5CCN(Cc6cc7c(c(C(F)(F)F)c6)CN(c6cccc(C8(Cc9nncn9C)CC8)c6)C7=O)CC5)CC4)CC3)ccc2C(=O)N1C1CCC(=O)NC1=O (mixture of isomers) [Example 234] | < 5 nM
* Cn1cnnc1CC1(c2cccc(N3Cc4c(cc(CN5CCN(CC6CCN(c7ccc(F)c(C(=O)NC8CCC(=O)NC8=O)c7)CC6)CC5)cc4C(F)(F)F)C3=O)c2)COC1 (stereo not drawn) [Example 54] | > 500 nM
* CC1c2nc(N3CCC(O[C@H]4CC[C@H](CN5CCN(Cc6cc7c(c(C(F)(F)F)c6)CN(c6cccc([C@]8(Cc9nncn9C)C[C@@H](C#N)C8)c6)C7=O)CC5)CC4)CC3)ccc2C(=O)N1C1CCC(=O)NC1=O (stereo partly drawn) [Example 203] | < 5 nM
* CC1c2nc(N3CCC(O[C@H]4CC[C@H](CN5CCN(Cc6cc(C(F)(F)F)c7cn(-c8cccc(C9(Cc%10nncn%10C)COC9)c8)nc7c6)CC5)CC4)CC3)ccc2C(=O)N1C1CCC(=O)NC1=O (stereo partly drawn) [Example 216] | < 5 nM
* Cn1cnnc1CC1(c2cccc(N3Cc4c(cc(CN5CC(CC6CN(c7ccc8c(c7)C(=O)N(C7CCC(=O)NC7=O)C8=O)C6)C5)cc4C(F)(F)F)C3=O)c2)COC1 (stereo not drawn) [Example 58] | > 500 nM
* Cn1cnnc1C[C@]1(c2cccc(N3Cc4c(cc(CN5CCN(C[C@H]6CC[C@H](OC7CCN(c8ccc(C9CCC(=O)NC9=O)nc8)CC7)CC6)CC5)cc4C(F)(F)F)C3=O)c2)C[C@H](C#N)C1 (stereo partly drawn) [Example 213] | > 500 nM
* Cn1cnnc1CC1(c2cccc(N3Cc4c(cc(CN5CCC(CC6CCN(c7ccc8c(c7)C(=O)N(C7CCC(=O)NC7=O)C8=O)CC6)C5)cc4C(F)(F)F)C3=O)c2)COC1 (stereo not drawn) [Example 75] | > 500 nM
* CC(C)n1c(=O)n(C2CCC(=O)NC2=O)c2cccc(N3CCC(O[C@H]4CC[C@H](CN5CCN(Cc6cc7c(c(C(F)(F)F)c6)CN(c6cccc([C@]8(Cc9nncn9C)C[C@H](C#N)C8)c6)C7=O)CC[C@@H]5C)CC4)CC3)c21 (stereo partly drawn) [Example 326] | < 5 nM
* Cn1cnnc1CC1(c2cccc(N3Cc4c(cc(CN5CCC6(CC5)CN(c5cccc7c5CN(C5CCC(=O)NC5=O)C7=O)C6)cc4C(F)(F)F)C3=O)c2)COC1 (stereo not drawn) [Example 42] | > 500 nM
* CC1c2nc(N3CCC(O[C@H]4CC[C@@H](CN5CCN(C[C@H]6CCCN(Cc7cc8c(c(C(F)(F)F)c7)CN(c7cccc(C9(Cc%10nncn%10C)COC9)c7)C8=O)C6)CC5)CC4)CC3)ccc2C(=O)N1C1CCC(=O)NC1=O (stereo partly drawn) [Example 160] | < 5 nM
* Cn1cnnc1CC1(c2cccc(N3Cc4c(cc(CN5CCC[C@H](CN6CCN(C[C@H]7CC[C@@H](OC8CCN(c9ccc%10c(c9Cl)CN(C9CCC(=O)NC9=O)C%10=O)CC8)CC7)CC6)C5)cc4C(F)(F)F)C3=O)c2)COC1 (stereo partly drawn) [Example 165] | < 5 nM
* Cn1cnnc1CC(C)(C)c1cccc(N2Cc3c(cc(CN4CCC[C@H](CN5CCN(C[C@H]6CC[C@@H](OC7CCN(c8ccc9c(c8F)CN(C8CCC(=O)NC8=O)C9=O)CC7)CC6)CC5)C4)cc3C(F)(F)F)C2=O)c1 (stereo partly drawn) [Example 164] | < 5 nM
